tested on: Saccharomyces cerevisiae BY4741 SeMeCo community; assay: z-score of subpopulation abundance vs DMSO median, subpopulation auxotrophic for HLUM; higher = larger share of this subpopulation than in DMSO controls; conditions: 10 µM; 24 h; SM minimal medium; subpopulation (auxotrophy): HLUM
Where a name gives a salt, the structure may show the parent alone.
Lab note: compare z-score of subpopulation abundance against 0.4. Equal or greater, write yes. Smaller, write no.

COMPOUND	GROUP LABEL
N#Cc1ccc2[nH]cc(CCCCN3CCN(c4ccc5oc(C(N)=O)cc5c4)CC3)c2c1 [Vilazodone HCl]	no
C[C@@H](O)[C@H]1C(=O)N2C(C(=O)O)=C(S[C@@H]3CN[C@H](CNS(N)(=O)=O)C3)[C@H](C)[C@H]12 [Doripenem Hydrate]	no
CC/C(=C(/CC)c1ccc(O)cc1)c1ccc(O)cc1	no
COc1cc(C(C)=O)ccc1OCCCN1CCC(c2noc3cc(F)ccc23)CC1	no
Oc1c(Br)cc(Br)c2cccnc12	yes
CO[C@H]1C[C@@H]2CC[C@@H](C)[C@@](O)(O2)C(=O)C(=O)N2CCCC[C@H]2C(=O)O[C@H]([C@H](C)C[C@@H]2CC[C@@H](OCCO)[C@H](OC)C2)CC(=O)[C@H](C)/C=C(\C)[C@@H](O)[C@@H](OC)C(=O)[C@H](C)C[C@H](C)/C=C/C=C/C=C/1C [Everolimus (RAD001)]	yes
CCCCCCCCCCCCCCCC[N+](C)(C)C [Cetrimonium Bromide (CTAB)]	yes
C[C@]12CC[C@@H]3c4ccc(OS(=O)(=O)O)cc4CC[C@H]3[C@@H]1CCC2=O [Estropipate]	no
CC1(C)S[C@@H]2[C@H](NC(=O)C(c3ccccc3)S(=O)(=O)O)C(=O)N2[C@H]1C(=O)O (stereo not given in full) [Sulbenicillin Sodium]	yes
CC[C@H](C)[C@H](N)C1=N[C@H](C(=O)N[C@@H](CC(C)C)C(=O)N[C@H](CCC(=O)O)C(=O)N[C@H](C(=O)N[C@H]2CCCCNC(=O)[C@H](CC(N)=O)NC(=O)[C@@H](CC(=O)O)NC(=O)[C@H](Cc3cnc[nH]3)NC(=O)[C@@H](Cc3ccccc3)NC(=O)[C@H]([C@@H](C)CC)NC(=O)[C@@H](CCCN)NC2=O)[C@@H](C)CC)CS1	yes
CCCNC(C)C(=O)Nc1ccccc1C (stereo not given) [Prilocaine hydrochloride]	yes
N=C(N)NC(=N)N1CCOCC1 [Moroxydine HCl]	no
Oc1cccc(O)c1	no
C[C@]12CC[C@@H]3c4ccc(O)cc4C[C@@H](CCCCCCCCC[S+]([O-])CCCC(F)(F)C(F)(F)F)[C@H]3[C@@H]1CC[C@@H]2O (stereo not given in full)	yes
O=C(O)Cc1ccccc1Nc1c(Cl)cccc1Cl [Diclofenac Sodium]	no
CN(Cc1ccc(C(C)(C)C)cc1)Cc1cccc2ccccc12 [Butenafine HCl]	no
CCC(=O)NS(=O)(=O)c1ccc(-c2c(-c3ccccc3)noc2C)cc1 [Parecoxib Sodium]	yes
NC(=N\CCCCCC/N=C(N)/N=C(\N)Nc1ccc(Cl)cc1)/N=C(\N)Nc1ccc(Cl)cc1 [Chlorhexidine diacetate]	yes
CCC[S+]([O-])c1ccc2[nH]c(NC(=O)OC)nc2c1 (stereo not given) [Albendazole Oxide]	no

---

system: Saccharomyces cerevisiae BY4741 SeMeCo community; assay: z-score of subpopulation abundance vs DMSO median, subpopulation auxotrophic for HUM; higher = larger share of this subpopulation than in DMSO controls; conditions: 10 µM; 24 h; SM minimal medium; subpopulation (auxotrophy): HUM
Where a name gives a salt, the structure may show the parent alone.
Lab note: compare z-score of subpopulation abundance against 0.09. Equal or greater, write Y. Smaller, write N.

In [3]: df
Out[3]:
                                   compound                         system_under_test  group_label
0  CNCC[C@H](Oc1cccc2ccccc12)c1cccs1 [Duloxetine HCl]  Saccharomyces cerevisiae BY4741 SeMeCo community            N
1  C[C@@H](c1ncncc1F)[C@](O)(Cn1cncn1)c1ccc(F)cc1F [Voriconazole]  Saccharomyces cerevisiae BY4741 SeMeCo community            Y
2  CCCc1nc(C)c2c(=O)nc(-c3cc(S(=O)(=O)N4CCN(CC)CC4)ccc3OCC)[nH]n12 [Vardenafil HCl Trihydrate]  Saccharomyces cerevisiae BY4741 SeMeCo community            Y
3  Cc1ncc([N+](=O)[O-])n1CCOC(=O)c1ccccc1 [Metronidazole Benzoate]  Saccharomyces cerevisiae BY4741 SeMeCo community            N
4  CCCN1CCCC[C@H]1C(=O)Nc1c(C)cccc1C [Ropivacaine]  Saccharomyces cerevisiae BY4741 SeMeCo community            N

---

system: Saccharomyces cerevisiae BY4741 SeMeCo community; experiment: z-score of prototroph abundance vs DMSO median; higher = larger share of this subpopulation than in DMSO controls; conditions: 10 µM; 24 h; SM minimal medium; subpopulation (auxotrophy): Prototroph
Counter-ions that a name gives are not always drawn.
MEASUREMENT TYPE: z-score of prototroph abundance

>>> df
                                   molecule                 measurement_type  measured_result
0  COc1ccc2[nH]c([S+]([O-])Cc3ncc(C)c(OC)c3C)nc2c1 (stereo not drawn) [Omeprazole Sodium]  z-score of prototroph abundance              0.8
1          CCc1cc(C(N)=S)ccn1 [Ethionamide]  z-score of prototroph abundance             0.06
2  Cc1cc(C)nc(O)n1.O=C(Nc1ccc([N+](=O)[O-])cc1)Nc1ccc([N+](=O)[O-])cc1  z-score of prototroph abundance             0.74
3                            N[C@H]1CONC1=O  z-score of prototroph abundance            -1.74
4            CCCSc1ccc2[nH]c(NC(=O)OC)nc2c1  z-score of prototroph abundance            -0.36
5  COc1cc(C(C)=O)ccc1OCCCN1CCC(c2noc3cc(F)ccc23)CC1  z-score of prototroph abundance            -0.06
6  C[C@]1(Cn2ccnn2)[C@H](C(=O)O)N2C(=O)C[C@H]2S1(=O)=O  z-score of prototroph abundance            -0.17
7  C=C1c2cccc(O)c2C(O)=C2C(=O)[C@]3(O)C(O)=C(C(N)=O)C(=O)[C@@H](N(C)C)[C@@H]3[C@@H](O)[C@H]12 [Methacycline HCl]  z-score of prototroph abundance             0.09

---

tested on: Saccharomyces cerevisiae BY4741 SeMeCo community; experiment: z-score of subpopulation abundance vs DMSO median, subpopulation auxotrophic for HU; higher = larger share of this subpopulation than in DMSO controls; conditions: 10 µM; 24 h; SM minimal medium; subpopulation (auxotrophy): HU
Structures can show the parent of a compound that is named as a salt.
Entries and their z-score of subpopulation abundance values follow.

COMPOUND	z-score of subpopulation abundance
COCC(=O)Nc1cc(Sc2ccccc2)ccc1N=C(NC(=O)OC)NC(=O)OC	-0.73
CCOC(=O)c1ccc(N)cc1 [Benzocaine hydrochloride]	0.87
COc1ccc(C[C@H](N)C(=O)N[C@H]2[C@@H](O)[C@H](n3cnc4c(N(C)C)ncnc43)O[C@@H]2CO)cc1 [Puromycin 2HCl]	0.15
Nc1nc2[nH]cc(CCc3ccc(C(=O)N[C@@H](CCC(=O)O)C(=O)O)cc3)c2c(=O)[nH]1 [Pemetrexed]	2.15
CO[C@H]1C[C@@H]2CC[C@@H](C)[C@@](O)(O2)C(=O)C(=O)N2CCCC[C@H]2C(=O)O[C@H]([C@H](C)C[C@@H]2CC[C@H](n3cnnn3)[C@H](OC)C2)CC(=O)[C@H](C)/C=C(\C)[C@@H](O)[C@@H](OC)C(=O)[C@H](C)C[C@H](C)/C=C/C=C/C=C/1C	23.5
Nc1nc2c(ncn2COC(CO)CO)c(=O)[nH]1	-0.11
CCOc1cc(N)c(Cl)cc1C(=O)NCC1CN(Cc2ccc(F)cc2)CCO1 (centres undefined) [Mosapride]	0.02
Nc1ccc(S(N)(=O)=O)cc1 [Sulfanilamide]	-1.15
C[N+]1(C)[C@@H]2CC[C@H]1C[C@@H](OC(=O)C(O)c1ccccc1)C2 (some centres undefined) [Homatropine Methylbromide]	0.05

---

test system: Saccharomyces cerevisiae BY4741 SeMeCo community; assay: z-score of subpopulation abundance vs DMSO median, subpopulation auxotrophic for HLU; higher = larger share of this subpopulation than in DMSO controls; settings: 10 µM; 24 h; SM minimal medium; subpopulation (auxotrophy): HLU
MEASUREMENT TYPE: z-score of subpopulation abundance

>>> df
                                   molecule  measured_result
0  CCCCN(CCCC)CC(O)c1cc(Cl)cc2c1-c1ccc(Cl)cc1/C2=C/c1ccc(Cl)cc1 (stereo not drawn)            -0.32
1  Clc1ccc(C(Cn2ccnc2)OCc2ccsc2Cl)c(Cl)c1 (stereo not drawn)             3.35
2  OCCOc1ccc(/C(=C(/CCCl)c2ccccc2)c2ccccc2)cc1             0.94
